STUDY SYSTEM: RAGE (sRAGE) binding to β-amyloid (Homo sapiens)
Construct: extracellular domain can be isolated by proteolysis of RAGE to generate soluble RAGE (sRAGE) comprised of the V and C domains
Sequence (Q15109 23-342 limits assumed): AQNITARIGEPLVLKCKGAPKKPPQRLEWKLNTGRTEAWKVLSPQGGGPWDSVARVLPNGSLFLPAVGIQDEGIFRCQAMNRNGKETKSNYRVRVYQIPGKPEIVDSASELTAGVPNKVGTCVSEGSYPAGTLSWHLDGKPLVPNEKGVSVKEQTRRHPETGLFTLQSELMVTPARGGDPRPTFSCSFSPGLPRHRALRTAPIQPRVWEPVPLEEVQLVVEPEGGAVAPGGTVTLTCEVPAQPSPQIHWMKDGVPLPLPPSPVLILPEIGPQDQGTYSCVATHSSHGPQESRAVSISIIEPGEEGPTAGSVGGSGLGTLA
TEST DESCRIPTION: ELISA assay: inhibition of sRAGE binding to plate-bound β-amyloid
APPLIED CONDITIONS: ligand β-amyloid coated on plate, concentration at which 50% signal has been inhibited
READOUT NAME: IC50

Below, 3 compounds whose answers are already recorded.
| COMPOUND | READING |
| --- | --- |
| CCN(CC)CCCOc1ccc(N(CC2CCCC2)C(=O)[C@@H](Cc2ccc(OCc3ccccc3)cc2)NC(=O)OC(C)(C)C)cc1 [Example 14] | 1 to 5 µM |
| CCN(CC)CCCOc1ccc(NC(=O)CC(NC(=O)OCC2c3ccccc3-c3ccccc32)c2ccccc2OC(C)(C)C)c(OCCCN(CC)CC)c1 (stereo not shown) [Example 10] | 1 to 5 µM |
| CCCCOc1cc(OCCCN(CC)CC)ccc1NC(=O)C(N)CC1CCN(Cc2ccccc2)CC1 (stereo not shown) [Example 25] | 10 to 20 µM |

# context switch: different compound, same IC50
Entry CCN(CC)CCCOc1ccc(NC(=O)CC(N)c2cccc(OC(C)(C)C)c2)c(OCCCN(CC)CC)c1 (stereo not shown) [Example 3] , IC50 reported as 1 to 5 µM
